Recorded values, source paper PMC6821881.

TARGET ENTITY: T1, ZIKV E protein (GZ01) (Zika virus, isolate GZ01 (KU820898))
T1 construct: also called full-length E; surface envelope glycoprotein (E); source: E. coli BL21 (RIL), pET28a, IPTG-induced; inclusion bodies solubilized and re-folded
RUN DESCRIPTION: ELISA; E protein or E DIII protein captured separately onto ELISA plates overnight at 4°C; each mAb (full-length IgG) serially diluted and applied; detected with anti-human IgG-HRP and TMB; EC50 by dose-response stimulation model
CONDITION PARAMETERS: both partners purified
ASSAY ENDPOINT: binding result

# BINDER, ASSAY ENDPOINT, VALUE OBSERVED
measured = [
    ("2H-15 (antibody, V domains shown, also called ZK2B10 heavy chain somatic variant 2H-15; source: HEK 293T, transiently co-transfected, purified from supernatant (protein A agarose)) VH: EVQLVQSGAEVKKPGASVKVSCKASGYTFTSYDVNWVRQATGQGLEWMGWMNPNSGNTGYAQKFQGRVTMTRNTSISTAYMELSSLRSEDTAVYYCARVSSGSYYGSYYYYYYGMDVWGQGTTVTVSS VL: SYELTQPPSASGTPGQRVTISCSGSSSNIGNNYVHWYQQLPGSAPKLLIYRNNQRPSGVPDRFSGSKSGTSGSLAISGLRSEDEADYYCASWDDSLSGHWVFGGGTKVTVL", "binding result", "binds"),
    ("2H-10 (antibody, V domains shown, also called ZK2B10 heavy chain somatic variant 2H-10; source: HEK 293T, transiently co-transfected, purified from supernatant (protein A agarose)) VH: QVQLVQSGVEVKKPGASVEVSCQASGITSTSYDINWVRQANGQGLEWMGWMNPNSGNTGYAQKFQGRVTMTRNTSISTAYMELSSLRSEDTAVYYCARVSSGSYYGSYYYYYYGMDVWGQGTTVTVSS VL: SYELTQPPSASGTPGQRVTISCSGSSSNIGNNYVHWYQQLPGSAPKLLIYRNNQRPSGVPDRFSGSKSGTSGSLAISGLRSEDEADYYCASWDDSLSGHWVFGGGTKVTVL", "binding result", "binds"),
    ("2H-16 (antibody, V domains shown, also called ZK2B10 heavy chain somatic variant 2H-16; source: HEK 293T, transiently co-transfected, purified from supernatant (protein A agarose)) VH: QVQLVQSGAEVKKPGASVKVSCKASGYTFTSYDINWVRQATGQGLEWMGWMNPNSGNTGCAQKFQGRVTMTRNTSISTAYMELSSLRSEDTAVYYCARVSSGSYYGSYYYYYYGMDVWGQGTTVTVSS VL: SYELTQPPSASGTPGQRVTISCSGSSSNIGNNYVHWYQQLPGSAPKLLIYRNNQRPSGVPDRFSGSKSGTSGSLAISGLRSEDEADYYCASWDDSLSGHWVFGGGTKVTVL", "binding result", "binds"),
]
